# System: MDA-MB-231 breast
# EXPERIMENT SUMMARY: NCI tumour cell line growth inhibition, 48 h
Kindly state TGI for each of the entries shown.

Enquiry: I would be grateful if you could share the reported TGI for Cn1c(=O)nc2n(CCO)ccnc-2c1=O .
Return: > 100 µM

Enquiry: Next record, please: C[C@@H](C(=O)O)c1ccc(-c2ccccc2)c(F)c1
Return: > 100 µM

Enquiry: Same thing, different molecule: C/C(=N\Nc1ccc2ccccc2n1)c1ccccc1O
Return: > 100 µM

* * *

Please go through the items and note down their TGI.
# Tested on: OVCAR-8 ovarian
# EXPERIMENT SUMMARY: NCI tumour cell line growth inhibition, 48 h

Enquiry: Find the recorded TGI belonging to O=C(/C=C/C=C/c1ccccc1)c1ccc(Nc2nc(Nc3ccccc3)nc(Nc3ccccc3)n2)cc1 and report it.
Return: > 100 µM

Enquiry: Then what about the compound O=C1Nc2cc(Cl)ccc2Oc2cc(Oc3ccccc3)ccc21 ?
Return: 78.4 µM

Enquiry: Also check COc1ccc(C(=O)/C=C2\c3ccccc3C(=O)N2C)cc1
Return: > 100 µM

Enquiry: Please give the result for O=S(=O)(O)c1ccc(Cl)cc1.[Cd] too.
Return: > 100 µM

Enquiry: // same read-out, input: Cc1ccc(S(=O)(=O)NC(=O)C2(Br)S(=O)(=O)OCCOS2(=O)=O)cc1
Return: > 100 µM

Enquiry: Moving on to the next compound: COc1ccc(-c2nc(N(C)C)c3ccccc3n2)cc1
Return: > 100 µM
